# Test system: mitochondrial lipid peroxidation
# assay-text: In-vitro inhibition of lipid peroxidation (thiobarbituric acid test), mitochondria
# Format: biochemical
# condition-details: rat liver mitochondria
Counter-ions that a name gives are not always drawn.
endpoint-label: IC50 (µM)
Express the result in µM but write the number alone.

Please report the recorded IC50 for CC(C)(C)c1cc(C2=NN3CCN=C3SC2)cc(C(C)(C)C)c1O [Example 1, hydrochloride] .
4

---

The entries below are paired with their reported LD50 at 168 h.
# assay-text: in vivo
# condition-details: mouse, ip
Structures can show the parent of a compound that is named as a salt.

The cases that follow already have their LD50 at 168 h on record.
molecule: CC(C)(C)c1cc(C2=NN3CC(=O)N=C3SC2)cc(C(C)(C)C)c1O [Example 6, hydrobromide]
LD50 at 168 h: 300 to 600 mg/kg

molecule: CC(C)(C)c1cc(C2=NN3CCN=C3SC2)cc(C(C)(C)C)c1O [Example 1, hydrochloride]
LD50 at 168 h: > 1200 mg/kg

molecule: CC(C)(C)c1cc(C2=Nn3ccnc3SC2)cc(C(C)(C)C)c1O [Example 4, hydrochloride]
LD50 at 168 h: 300 to 600 mg/kg

molecule: CC(C)(C)c1cc(C2=NN3C(=O)CN=C3SC2)cc(C(C)(C)C)c1O [Example 7, hydrobromide]
LD50 at 168 h: 300 to 600 mg/kg

molecule: CC1Sc2nncn2N=C1c1cc(C(C)(C)C)c(O)c(C(C)(C)C)c1 (stereo not drawn)
LD50 at 168 h: > 1200 mg/kg

Please report the recorded LD50 at 168 h for CC1SC2=NCCN2N=C1c1cc(C(C)(C)C)c(O)c(C(C)(C)C)c1 (stereo not drawn) [Example 2, hydrochloride] .
> 1200 mg/kg
